# TARGET_OR_TEST_SYSTEM: Fuc(a1-3)[Gal(b1-4)]GlcNAc(b1-6)GalNAc
# PROTOCOL: glycan array binding signal (z-score within array); higher = stronger binding
# ASSAY_CONDITIONS: glycan notation: IUPAC condensed, linker removed
Only a selection was taken, and the strongest signals are over-represented in it overall.
QUANTITY: glycan array binding signal (z-score)

BINDER | VALUE_MEASURED
ECL (Erythrina cristagalli), Q6YD91 (protein) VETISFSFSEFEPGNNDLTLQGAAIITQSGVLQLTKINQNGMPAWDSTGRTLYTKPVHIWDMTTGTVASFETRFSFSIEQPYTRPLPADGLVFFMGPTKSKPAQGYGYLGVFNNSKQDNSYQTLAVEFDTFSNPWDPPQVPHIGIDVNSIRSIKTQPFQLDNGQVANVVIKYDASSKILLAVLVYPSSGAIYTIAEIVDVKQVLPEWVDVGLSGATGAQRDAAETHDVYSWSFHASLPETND | 0.251
rCnSL-proA (Clitocybe nebularis) (protein) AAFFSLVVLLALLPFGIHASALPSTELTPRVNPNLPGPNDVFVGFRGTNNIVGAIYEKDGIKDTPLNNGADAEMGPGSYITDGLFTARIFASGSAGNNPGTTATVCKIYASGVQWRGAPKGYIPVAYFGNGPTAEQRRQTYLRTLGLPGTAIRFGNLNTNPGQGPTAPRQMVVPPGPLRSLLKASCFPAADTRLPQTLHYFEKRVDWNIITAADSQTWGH | 0.153
